The measurements presented in this section are drawn from paper PMC12652113.

assay.overview: Absorption and fluorescence photophysical characterization in organic solvents
Type: physicochemical
condition.details: chloroform (CFM)
This section presents compounds with their documented absorption maximum (λabs) values.

[[record]]
structure_notation = "CNC1=C(C=C2N(CCCc3ccccc3)c3ccccc3C2(C)C)C(=O)C1=CC1=[N+](CCCc2ccccc2)c2ccccc2C1(C)C.[I-]"
recorded_measurement = "657 nm"

[[record]]
structure_notation = "CC1(C)C(=CC2=C(N)C(=CC3=[N+](CCCc4ccccc4)c4ccccc4C3(C)C)C2=O)N(CCCc2ccccc2)c2ccccc21.[I-]"
recorded_measurement = "647 nm"

[[record]]
structure_notation = "CC1(C)C(=CC2=C(NCc3ccc4ccc5cccc6ccc3c4c56)C(=CC3=[N+](CCCc4ccccc4)c4ccccc4C3(C)C)C2=O)N(CCCc2ccccc2)c2ccccc21.[I-]"
recorded_measurement = "658 nm"


Input: Query (compound): CC1(C)C(=CC2=C([O-])C(=CC3=[N+](CCCc4ccccc4)c4ccccc4C3(C)C)C2=O)N(CCCc2ccccc2)c2ccccc21 ; field requested: absorption maximum (λabs)
Output: 638 nm

---

assay.overview: Absorption and fluorescence photophysical characterization in organic solvents
Assay type: physicochemical
condition.details: DMSO
This section presents compounds with their documented emission maximum (λem) values.
Hi! Could you send only the number? It should be in nm, unit omitted.

Some solved cases for reference:
[[record]]
compound = "CC1(C)C(=CC2=C([O-])C(=CC3=[N+](CCCc4ccccc4)c4ccccc4C3(C)C)C2=O)N(CCCc2ccccc2)c2ccccc21 [Dye 5]"
reported_property = "emission maximum (λem)"
recorded_measurement = 659

[[record]]
compound = "CC1(C)C(=CC2=C(N)C(=CC3=[N+](CCCc4ccccc4)c4ccccc4C3(C)C)C2=O)N(CCCc2ccccc2)c2ccccc21.[I-] [Dye 9]"
reported_property = "emission maximum (λem)"
recorded_measurement = 664

[[record]]
compound = "CNC1=C(C=C2N(CCCc3ccccc3)c3ccccc3C2(C)C)C(=O)C1=CC1=[N+](CCCc2ccccc2)c2ccccc2C1(C)C.[I-] [Dye 11]"
reported_property = "emission maximum (λem)"
recorded_measurement = 675


Now take the following compound into account.
Input: Query (compound): CC1(C)C(=CC2=C(NCc3ccc4ccc5cccc6ccc3c4c56)C(=CC3=[N+](CCCc4ccccc4)c4ccccc4C3(C)C)C2=O)N(CCCc2ccccc2)c2ccccc21.[I-] [Dye 14] ; field requested: emission maximum (λem)
Output: 676

---

assay.overview: Photophysical properties in phosphate buffer in the absence of HSA
Type: physicochemical
condition.details: phosphate buffer (pH 7.4)
reported.property: molar absorption coefficient (ε) (M⁻¹ cm⁻¹)
Hi! Could you send only the number? It should be in M⁻¹ cm⁻¹, unit omitted.

[[record]]
structure_notation = "CC1(C)C(=CC2=C(N)C(=CC3=[N+](CCCc4ccccc4)c4ccccc4C3(C)C)C2=O)N(CCCc2ccccc2)c2ccccc21.[I-]"
reported_property = "molar absorption coefficient (ε)"
unit_string = "M⁻¹ cm⁻¹"
recorded_measurement = 58000


Input: Query (compound): CC1(C)C(=CC2=C(NCc3ccc4ccc5cccc6ccc3c4c56)C(=CC3=[N+](CCCc4ccccc4)c4ccccc4C3(C)C)C2=O)N(CCCc2ccccc2)c2ccccc21.[I-] ; field requested: molar absorption coefficient (ε)
Output: 67000

Input: Another: CC1(C)C(=CC2=C([O-])C(=CC3=[N+](CCCc4ccccc4)c4ccccc4C3(C)C)C2=O)N(CCCc2ccccc2)c2ccccc21
Output: 89000

Input: Another: CNC1=C(C=C2N(CCCc3ccccc3)c3ccccc3C2(C)C)C(=O)C1=CC1=[N+](CCCc2ccccc2)c2ccccc2C1(C)C.[I-]
Output: 71000
